- Tested target: gankyrin (Homo sapiens, UniProt O75832)
- Construct: gene PSMD10; His-tagged full-length human gankyrin
- Sequence (O75832 1-226): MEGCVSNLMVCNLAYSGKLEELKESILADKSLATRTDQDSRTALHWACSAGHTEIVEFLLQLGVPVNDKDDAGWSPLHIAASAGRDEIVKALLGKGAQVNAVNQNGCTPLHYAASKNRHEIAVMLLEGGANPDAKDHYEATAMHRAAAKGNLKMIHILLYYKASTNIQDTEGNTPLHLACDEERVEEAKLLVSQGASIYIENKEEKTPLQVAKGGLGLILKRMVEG
- Procedure text: ITC (Kd […], stoichiometry […]); also label-free MST (Kd […]), thermal shift, 1H-15N HSQC NMR
- Format: binding
Property measured: Kd

Q: Entry under review: COC(=O)c1ccc(-n2cc(CCCOS(=O)(=O)c3ccc(C)cc3)nn2)cc1 . Reported Kd?
A: 580 nM
